Target Desc: human CB1 receptor (Homo sapiens, UniProt P21554)
Construct: expressed in transfected cells; host or cells: HEK293
Sequence (P21554 whole entry): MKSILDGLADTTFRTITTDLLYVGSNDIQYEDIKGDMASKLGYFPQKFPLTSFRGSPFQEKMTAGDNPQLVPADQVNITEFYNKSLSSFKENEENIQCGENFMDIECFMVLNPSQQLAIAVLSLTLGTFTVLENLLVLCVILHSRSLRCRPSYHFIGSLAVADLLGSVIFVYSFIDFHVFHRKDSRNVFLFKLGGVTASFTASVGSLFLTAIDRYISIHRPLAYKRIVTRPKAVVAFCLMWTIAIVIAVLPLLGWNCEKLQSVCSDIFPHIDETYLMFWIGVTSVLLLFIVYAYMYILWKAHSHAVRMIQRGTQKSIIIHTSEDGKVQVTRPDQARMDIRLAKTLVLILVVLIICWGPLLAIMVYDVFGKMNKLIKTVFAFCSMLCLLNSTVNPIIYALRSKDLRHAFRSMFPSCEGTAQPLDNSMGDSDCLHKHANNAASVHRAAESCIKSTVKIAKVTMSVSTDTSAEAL
Assay Info: bioSensAll β-arrestin2 plasma membrane translocation (+GRK2) BRET biosensor assay in HEK293 cells transfected with hCB1; test compound added before EC75-80 of agonist CP55,940 (100 nM)
Type: cell-based
Experimental Context: βArrestin2 (+GRK2) BRET biosensor, vs CP55,940 100 nM (EC75-80), read-out: CB1 wt βarr2 IC50
Exam item: assign label 1 to entries whose IC50 is below 20 nM and label 0 to entries at or above 20 nM. Note that a value of exactly 20 nM receives label 0.

Ask: # strict comparison: is reported IC50 < 20 nM? input = "CC1(C(N)=O)CCN(c2nc(N3CCS(=O)(=O)CC3)nc3c2nc(-c2ccccc2Cl)n3-c2ccc(Cl)cc2)CC1"
Reply: label 1

Ask: # strict comparison: is reported IC50 < 20 nM? input = "CN(CC1(C)COC1)c1nc(-c2ccc(C(F)(F)F)nc2)c2nc(-c3ccccc3Cl)n(-c3ccc(Cl)cc3)c2n1"
Reply: label 0

Ask: # strict comparison: is reported IC50 < 20 nM? input = "CC1(C(N)=O)CCN(c2nc(-c3cnc[nH]3)nc3c2nc(-c2ccccc2Cl)n3-c2ccc(Cl)cc2)CC1"
Reply: label 0

Ask: # strict comparison: is reported IC50 < 20 nM? input = "CC(C)(O)COc1nc(N2CCC(C)(C(N)=O)CC2)c2nc(-c3ccncc3Cl)n(-c3ccc(Cl)cc3)c2n1"
Reply: label 1

Ask: # strict comparison: is reported IC50 < 20 nM? input = "CC1(C(N)=O)CCN(c2nc(OCCNS(C)(=O)=O)nc3c2nc(-c2ccccc2Cl)n3-c2ccc(Cl)cc2)CC1"
Reply: label 1

Ask: # strict comparison: is reported IC50 < 20 nM? input = "CN(CCO)c1nc(N2CC3(COC3)C2)c2nc(-c3ccccc3Cl)n(-c3ccc(Cl)cc3)c2n1"
Reply: label 1

Ask: # strict comparison: is reported IC50 < 20 nM? input = "CN(C)c1ccc(-c2nc3c(N4CCC(C)(C(N)=O)CC4)nc(OCC(C)(C)O)nc3n2-c2ccc(Cl)cc2)cn1"
Reply: label 0

Ask: # strict comparison: is reported IC50 < 20 nM? input = "OC[C@H]1CCCN1c1nc(N2CCC(C(F)(F)F)CC2)c2nc(-c3ccccc3Cl)n(-c3ccc(Cl)cc3)c2n1"
Reply: label 0

Ask: # strict comparison: is reported IC50 < 20 nM? input = "CCNC1(C(N)=O)CCN(c2nc(N3CCC[C@H]3CO)nc3c2nc(-c2ccccc2Cl)n3-c2ccc(Cl)cc2)CC1"
Reply: label 1

Ask: # strict comparison: is reported IC50 < 20 nM? input = "CC(C)(O)COc1nc(NCC(N)=O)c2nc(-c3ccccc3Cl)n(-c3ccc(Cl)cc3)c2n1"
Reply: label 0

Ask: # strict comparison: is reported IC50 < 20 nM? input = "CC(C)(O)COc1nc(N2CCS(=O)(=O)CC2)c2nc(-c3ccccc3Cl)n(-c3ccc(Cl)cc3)c2n1"
Reply: label 1

Ask: # strict comparison: is reported IC50 < 20 nM? input = "CN1CCN(c2nc(OCC(C)(C)O)nc3c2nc(-c2ccccc2Cl)n3-c2ccc(Cl)cc2)CC1"
Reply: label 1

Ask: # strict comparison: is reported IC50 < 20 nM? input = "Cc1ccncc1-c1nc2c(N3CCC(C)(C(N)=O)CC3)nc(OCC(C)(C)O)nc2n1-c1ccc(Cl)cc1"
Reply: label 0

Ask: # strict comparison: is reported IC50 < 20 nM? input = OC[C@@H]1CCCN1c1nc(N2CCC(C(F)(F)F)CC2)c2nc(-c3ccccc3Cl)n(-c3ccc(Cl)cc3)c2n1 [Compound 162]
Reply: label 1

Origin of the recorded values: patent US20250333418A1
